biological target: pooled human IgG (human IgG1, 2, 3 and 4)
Readout: Enzyme Activity Endpoint Assay: IgG (ng/µL)

# Protein, Readout, U, Recorded Measurement
rows = [
    ("PRT-542 (protein) MANQEIRYSKNENPNVTIKWVHGIGEPTQAEKEKIEFWWYETTTTKFFNNRKVDHLGDGNQCWAKTDSNMLHWWFVQNEENINQYIEKKNITGKINFNGEQMFDVKEGIDDNQEPEKSYIANTFRTKKAHNLSTKHKGDYIINGLSWYLYGLNNFKNAHGPTPVKKKPKFYGPALFKDVFNRGDGNTPIIVETDFKEYTKKEFEDTLSAALDSKKAVGINIYGSNVDYQHAITLWGAAFDEEENIIAIYVVDNNFKFENRIFPYGIWYQKEGRPYLFNYEINSFVKNRYVGEITTLDKGEAQWQETNLEHHHHHH", "Enzyme Activity Endpoint Assay: IgG", "ng/µL", 1470),
    ("PRT-566 (protein) MANQEIRYSEETPSTITSVWTKGVTPPTQFIQNEDVLHAPYIANQGWYDITKTFNGKDDLLCGAATAGNMLHWWFDQNKEQIENYLKKHPEKQKINFNGEQMFDVKEAIDTKDSQTDSALFEYFKDKAFPYLSTKHLGVFPDHVIDMFINGYRLSLTNHGPTPVKRGTKDPRGGIFDAVFTRGDQSKLLTSRHDFKEKTLNEISDLIKQELTEGKALGLSHTYANVRINHVINLWGADFNAEGNLEAIYVTDSDSNASIGMKKYYVGVNSAGKVAISAKEIEGDNIGAQVLGLFTLSTGQDIWNQTNLEHHHHHH", "Enzyme Activity Endpoint Assay: IgG", "ng/µL", 0),
]
